B1: TPR 5TU (parent)
chain: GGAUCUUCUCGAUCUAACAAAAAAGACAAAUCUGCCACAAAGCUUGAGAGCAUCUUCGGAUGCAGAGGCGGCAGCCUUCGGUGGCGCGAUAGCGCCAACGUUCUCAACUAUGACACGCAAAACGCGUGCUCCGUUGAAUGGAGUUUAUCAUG

variants of: B1; assay: polymerase ribozyme fitness, log enrichment relative to wild type (log ratio); higher = more active; in vitro selection for triplet polymerase activity
Fewer inactive variants are shown than the library holds.
PARAMETER_MEASURED: polymerase ribozyme fitness (log ratio)
Quick one: just the number, no unit, thanks!

[in] Name the recorded polymerase ribozyme fitness (log ratio) for A39G A91G .
[out] -3.4

[in] So what does the record say about polymerase ribozyme fitness (log ratio) for G88A A147C ?
[out] -4.01

[in] Can you share its polymerase ribozyme fitness (log ratio)? I mean this variant: C35U A41C C105A
[out] -4.09

These entries and their values trace back to the RNAGym collection of RNA variant scans (doi:10.1073/pnas.2313332121).
